target: T1, Recombinant human ASF1AN (residues 1 to 156) (human, UniProt Q9Y294 1-156); test: ITC; VP-ITC, 20 °C, 50 mM tris-HCl pH 7.5; binder injected into the ASF1 solution; One Set of Sites model; duplicate; conditions: both partners purified
T1 construct: N-terminal domain of human ASF1A, UniProt Q9Y294, residues 1 to 156; Unlabeled for ITC; uniformly 15N- and/or 15N-13C-labeled for NMR; Made from pETM30 with a TEV cleavage site; also called hASF1AN; 15N-ASF1AN; source: E. coli, purified (glutathione agarose, TEV cleavage, Ni-NTA flow-through, Resource Q); not shown: His6, N-terminal, cleaved; GST, N-terminal, cleaved
T1 sequence (Q9Y294 1-156): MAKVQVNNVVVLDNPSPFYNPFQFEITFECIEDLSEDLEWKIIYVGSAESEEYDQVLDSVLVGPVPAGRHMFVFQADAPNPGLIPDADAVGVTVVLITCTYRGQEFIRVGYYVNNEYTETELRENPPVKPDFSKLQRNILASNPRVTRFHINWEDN
Listing: pKd of selected binders
pKd field: float, defined as -log10 of concentration (mol/L).

Previously resolved entries follow.
WARLARRTAGAGGVTLNGAG (also called constant C-terminal scaffold) [ip4_mutG] yielded pKd of 4.97

SAAARWAAALAALPGSKWARLARRTAGAGGVTLNGAG (designed binder, designed N-terminal extension; linker; ip4_mutG; source: E. coli BL21(DE3) Star, purified (Ni-NTA, SUMO protease, Resource RPC, Superdex 30); not shown: His6, N-terminal, cleaved; SUMO, N-terminal, cleaved) [Kan[348]_top1 (SAAARWAAALAALP-GSK-ip4_mutG), purified peptide] yielded pKd of 6.63

AEEEAARFAALLAALPGSKWARLARRTAGAGGVTLNGAG (designed binder, designed N-terminal extension; linker; ip4_mutG; source: E. coli BL21(DE3) Star, purified (Ni-NTA, SUMO protease, Resource RPC, Superdex 30); not shown: His6, N-terminal, cleaved; SUMO, N-terminal, cleaved) [T32_Kan[209]_top1 (AEEEAARFAALLAALP-GSK-ip4_mutG), purified peptide] yielded pKd of 6.82

Consider now this further binder.
AAAERARFAALLAKLPGSKWARLARRTAGAGGVTLNGAG (designed binder, designed N-terminal extension; linker; ip4_mutG; source: E. coli BL21(DE3) Star, purified (Ni-NTA, SUMO protease, Resource RPC, Superdex 30); not shown: His6, N-terminal, cleaved; SUMO, N-terminal, cleaved) [Kan[348]_top2 (AAAERARFAALLAKLP-GSK-ip4_mutG), purified peptide] yielded pKd of 6.24
